Compiled literature pIC50, tested on Tyrosinase (Agaricus bisporus, UniProt O42713).
experimental-system: Tyrosinase (Agaricus bisporus, UniProt O42713)
Sequence (O42713 whole entry): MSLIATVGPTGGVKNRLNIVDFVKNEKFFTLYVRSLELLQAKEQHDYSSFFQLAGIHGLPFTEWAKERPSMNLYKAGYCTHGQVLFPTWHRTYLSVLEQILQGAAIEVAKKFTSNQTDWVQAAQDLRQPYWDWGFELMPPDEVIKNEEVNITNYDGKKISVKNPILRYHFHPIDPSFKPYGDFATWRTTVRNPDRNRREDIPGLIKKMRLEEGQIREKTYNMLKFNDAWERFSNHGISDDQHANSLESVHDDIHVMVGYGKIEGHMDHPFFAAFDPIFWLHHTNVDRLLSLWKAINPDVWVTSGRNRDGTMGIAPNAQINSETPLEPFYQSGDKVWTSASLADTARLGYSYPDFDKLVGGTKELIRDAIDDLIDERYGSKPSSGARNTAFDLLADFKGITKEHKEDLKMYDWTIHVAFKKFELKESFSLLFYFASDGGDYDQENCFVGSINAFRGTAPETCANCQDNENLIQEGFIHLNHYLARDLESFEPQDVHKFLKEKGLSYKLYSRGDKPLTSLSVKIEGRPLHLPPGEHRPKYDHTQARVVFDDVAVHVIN
pIC50: −log10 of the molar value.
endpoint-name: pIC50

> print(dat)
                                    compound  endpoint.name  bound.operator  meas.value
 1  CC(=O)N1N=C(c2ccc(O)cc2)CC1c1ccc(O)c(O)c1 (stereo unspecified)          pIC50               =        5.97
 2  CC(=O)O[C@H]1[C@@H](OC(C)=O)[C@H](Oc2ccc(C=O)cc2)O[C@H](CO)[C@H]1OC(C)=O          pIC50               <        2.52
 3                 S=C(NCCc1ccccc1)Nc1ccccc1          pIC50               <        4.00
 4  COc1cc(C=O)ccc1OC(=O)CN1CCN(c2ccccc2)CC1          pIC50               =        3.99
 5  COc1cc([C@H]2OC[C@H]3[C@@H]2CO[C@@H]3c2cc(OC)c(O)c(OC)c2)cc(OC)c1O          pIC50               <        3.00
 6             Oc1nc(-c2ccc(F)cc2)nc2ccccc12          pIC50               =        3.92
 7                         CC/C(C)=N\NC(N)=S          pIC50               =        6.55
 8  C/C(=N/NC(N)=S)c1ccc(/C(C)=N\NC(N)=S)cc1          pIC50               =        6.82
 9  NC(=S)N/N=C\c1ccc(O[C@@H]2O[C@H](CO)[C@@H](O)[C@@H](O)[C@H]2O)cc1          pIC50               =        5.44
10  OC[C@H]1O[C@@H](OCCc2ccc(O)cc2O)[C@H](O)[C@@H](O)[C@@H]1O          pIC50               =        4.44
11  CC(C)=CCc1cccc([C@@H]2CC(=O)c3c(O)cc(O)c(CC=C(C)C)c3O2)c1O          pIC50               =        4.16
12      O=C(c1ccccc1F)N1CCN(Cc2ccc(F)cc2)CC1          pIC50               =        5.43
13                          CNC(=S)Nc1ccccc1          pIC50               <        4.00
14            COc1cc(-c2ccc(F)cc2F)cc(OC)c1O          pIC50               =        4.22
15  CCCCC[S+]([O-])Cc1cc(=O)c(O)co1 (stereo unspecified)          pIC50               =        4.10
16  Cc1c(C)c2c(c(C)c1O)CCC(C)(C(=O)OCc1cc(=O)c(O)co1)O2 (racemic)          pIC50               =        5.27

====

Compiled literature IC50, tested on the protein given by its sequence.
Target sequence: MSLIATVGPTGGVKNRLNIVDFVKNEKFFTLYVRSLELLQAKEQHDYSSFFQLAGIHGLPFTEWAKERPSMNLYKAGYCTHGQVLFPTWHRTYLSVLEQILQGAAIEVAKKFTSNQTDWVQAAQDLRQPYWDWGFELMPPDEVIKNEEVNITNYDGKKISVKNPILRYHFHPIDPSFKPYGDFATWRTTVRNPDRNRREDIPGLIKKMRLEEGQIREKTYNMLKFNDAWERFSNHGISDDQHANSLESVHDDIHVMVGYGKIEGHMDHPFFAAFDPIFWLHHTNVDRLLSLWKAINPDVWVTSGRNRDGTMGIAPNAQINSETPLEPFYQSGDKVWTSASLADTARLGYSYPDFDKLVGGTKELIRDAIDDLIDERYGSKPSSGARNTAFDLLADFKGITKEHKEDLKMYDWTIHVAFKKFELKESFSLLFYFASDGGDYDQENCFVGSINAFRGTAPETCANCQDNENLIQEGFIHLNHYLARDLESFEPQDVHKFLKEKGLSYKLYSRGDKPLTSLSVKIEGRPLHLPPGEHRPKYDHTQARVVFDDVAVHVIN
endpoint-name: IC50

> print(dat)
                            smiles.notation  meas.value
1               CC(C)N(C(=S)Nc1ccccc1)C(C)C    > 100 µM
2  CC(=O)OC[C@H]1O[C@@H](Oc2ccc(/C=N\O)cc2)[C@H](OC(C)=O)[C@@H](OC(C)=O)[C@H]1OC(C)=O    > 200 µM
3                      CONC(=O)N(C)c1ccccc1   > 1000 µM

====

pIC50: −log10 of the molar value.
Compiled literature pIC50, tested on Tyrosinase (Agaricus bisporus).
endpoint-name: pIC50

> print(dat)
                          smiles.notation             experimental.system  endpoint.name  bound.operator  meas.value
1    O=c1c(O)c(-c2ccccc2)oc2cc(O)cc(O)c12  Tyrosinase (Agaricus bisporus)          pIC50               <        4.00
2                       NC(=S)NCCc1ccccc1  Tyrosinase (Agaricus bisporus)          pIC50               <        4.00
3    CCCCCCCCOc1ccc(CC/C(C)=N/NC(N)=S)cc1  Tyrosinase (Agaricus bisporus)          pIC50               =        6.06
4                  CCCCCSCc1cc(=O)c(O)co1  Tyrosinase (Agaricus bisporus)          pIC50               =        7.01
5  CCCCC(=O)NC(=S)Nc1cccc([N+](=O)[O-])c1  Tyrosinase (Agaricus bisporus)          pIC50               =        4.78

====

Compiled literature IC50, tested on Tyrosinase (Agaricus bisporus, UniProt O42713).
I'd appreciate it if you marked entries YES when IC50 is lower than 8 µM and NO when it is not.

> print(dat)
                                    compound  category
 1                   CCCCOc1ccc(NC(=O)NO)cc1        NO
 2  COc1cc(CC[C@@H](O)CC(=O)CCc2ccccc2)ccc1O        NO
 3        CCCCCCCCOC(=O)/C=C/c1cc(=O)c(O)co1        NO
 4                      O=c1cc[nH]c(=S)[nH]1        NO
 5           COc1cc(-c2cccc(OC)c2F)cc(OC)c1O        NO
 6  NC(=O)[C@H](Cc1ccccc1)NC(=O)OCc1cc(=O)c(O)co1        NO
 7           O=c1oc2c(O)cccc2cc1-c1ccc(O)cc1        NO
 8     COc1cc(O)c(C(=O)/C=C/c2ccccc2)c(O)c1C        NO
 9                   COc1cc(C(=O)O)cc(OC)c1O        NO
10            C/C(=N/NC(N)=S)c1c(O)cc(O)cc1O        NO
11              CC(=O)N1CCC(Cc2ccc(F)cc2)CC1        NO
12  O=Cc1ccc(O[C@@H]2OC[C@@H](O)[C@@H](O)[C@H]2O)cc1        NO
13                   COc1ccc(/C=C/C(=O)O)cc1        NO
14  COc1ccc(C(=O)NCc2ccc(O)cc2O)cc1C12CC3CC(CC(C3)C1)C2       YES
15  CC(=O)OC[C@H]1O[C@@H](Oc2ccc(C=O)c(O)c2)[C@H](OC(C)=O)[C@@H](OC(C)=O)[C@@H]1OC(C)=O        NO
16      CCOc1cccc2cc(-c3ccc(OC)cc3)c(=O)oc12        NO
17             COc1ccc(C/C(C)=N/NC(=S)NN)cc1        NO
18  COc1cc(/C=C/C(=O)NCCc2ccc(O)c(OC)c2)ccc1O        NO
19      O=C(c1ccccc1O)N1CCN(Cc2ccc(F)cc2)CC1       YES
20  NC(=S)N/N=C\c1ccc(O[C@@H]2O[C@H](CO)[C@@H](O)[C@H](O)[C@H]2O)cc1       YES
21  CC[C@]12CCC[N+]3([O-])CCc4c(n(c5ccccc45)[C@@](O)(C(=O)OC)C1)[C@H]23 (stereo partly specified)        NO
22       O/N=C(\C=C\c1cccnc1)c1cc2ccccc2cc1O        NO
23          CCCCCOc1ccc(C/C(C)=N/NC(N)=S)cc1       YES
24      CCCCCC(=O)Nc1cccc(/C(C)=N/NC(N)=S)c1       YES
25  O=C(/C=C/c1ccc(O)cc1)c1ccc(NS(=O)(=O)c2ccc(F)cc2)cc1        NO
26   COc1ccc(/C=C/C(=O)Oc2cc(C)ccc2C(C)C)cc1        NO
27  NC(=O)C(Cc1ccccc1)NC(=O)OCc1cc(=O)c(O)co1 (stereo unspecified)       YES
28    O=C(NCc1cc(O)c(O)c(O)c1)c1ccc(O)c(O)c1        NO
29  CC(=O)OC[C@H]1O[C@@H](Oc2ccc(C=O)cc2)[C@H](OC(C)=O)[C@H](OC(C)=O)[C@@H]1OC(C)=O        NO
30                   NC(=S)N/N=C/c1cccc(F)c1        NO
31  COCC(O)COc1ccc(C=O)cc1 (stereo unspecified)        NO
32          O=C(OCc1cccc(O)c1)c1cc(O)cc(O)c1       YES
33  CC(=O)OC[C@H]1O[C@@H](Oc2cccc(C=O)c2)[C@H](OC(C)=O)[C@@H](OC(C)=O)[C@@H]1OC(C)=O        NO
34                   O=c1cc(CSC2CCCCC2)occ1O       YES
35  COc1cc(C(=O)OC[C@H]2O[C@H]3c4c(cc(OC)c(OC)c4OC)C(=O)O[C@@H]3[C@@H](O)[C@@H]2O)ccc1O        NO
